Listed here are molecules together with their documented relative viability.
- Test system: 201T
- assay-info: relative viability (nuclei count vs DMSO), 5 days (fraction); higher = more cells survive
- cond: first compound 8 µM
Please give the numeric answer without any surrounding text.

Some molecules with known relative viability results, for comparison:
[
  {
    "molecule": "O=c1[nH]c2ccccc2n1C1CCN(CCCC(c2ccc(F)cc2)c2ccc(F)cc2)CC1 [Pimozide] + Nc1nc2[nH]cc(CCc3ccc(C(=O)N[C@@H](CCC(=O)O)C(=O)O)cc3)c2c(=O)[nH]1 [Pemetrexed] (partner 0.2 µM)",
    "relative viability": 0.276
  },
  {
    "molecule": "O=c1[nH]c2ccccc2n1C1CCN(CCCC(c2ccc(F)cc2)c2ccc(F)cc2)CC1 [Pimozide] + NC(=O)Nc1cc(-c2cccc(F)c2)sc1C(=O)N[C@H]1CCCNC1 [AZD7762] (partner 0.2 µM)",
    "relative viability": 0.652
  },
  {
    "molecule": "O=c1[nH]c2ccccc2n1C1CCN(CCCC(c2ccc(F)cc2)c2ccc(F)cc2)CC1 [Pimozide] + CC(=O)c1c(C)c2cnc(Nc3ccc(N4CCNCC4)cn3)nc2n(C2CCCC2)c1=O [Palbociclib] (partner 0.5 µM)",
    "relative viability": 0.342
  }
]

Next:
Summary for this molecule, O=c1[nH]c2ccccc2n1C1CCN(CCCC(c2ccc(F)cc2)c2ccc(F)cc2)CC1 [Pimozide] + CC1(C)CCC(c2ccc(Cl)cc2)=C(CN2CCN(c3ccc(C(=O)NS(=O)(=O)c4ccc(N[C@H](CCN5CCOCC5)CSc5ccccc5)c(S(=O)(=O)C(F)(F)F)c4)cc3)CC2)C1 [Navitoclax] (partner 0.5 µM) : relative viability is 1.15

====

- Test system: 201T
- assay-info: relative viability (nuclei count vs DMSO), 5 days (fraction); higher = more cells survive
- cond: first compound 0.01581 µM
Note: every record was labeled by where its relative viability sits among bucket A (below 0.8), bucket B (0.8 to below 1), bucket C (1 or more)

[
  {
    "compound": "Nc1ccn([C@@H]2O[C@H](CO)[C@@H](O)[C@@H]2O)c(=O)n1 [Cytarabine] + CC1(C)CCC(c2ccc(Cl)cc2)=C(CN2CCN(c3ccc(C(=O)NS(=O)(=O)c4ccc(N[C@H](CCN5CCOCC5)CSc5ccccc5)c(S(=O)(=O)C(F)(F)F)c4)cc3)CC2)C1 [Navitoclax] (partner 0.5 µM)",
    "classification": "bucket C"
  },
  {
    "compound": "COc1cc2nccc(Oc3ccc(NC(=O)Nc4cc(C)on4)c(Cl)c3)c2cc1OC [Tivozanib] + CS(=O)(=O)N1CCN(Cc2cc3nc(-c4cccc5[nH]ncc45)nc(N4CCOCC4)c3s2)CC1 [Pictilisib] (partner 1 µM)",
    "classification": "bucket A"
  },
  {
    "compound": "Nc1ccn([C@@H]2O[C@H](CO)[C@@H](O)[C@@H]2O)c(=O)n1 [Cytarabine] + NC(=O)Nc1cc(-c2cccc(F)c2)sc1C(=O)N[C@H]1CCCNC1 [AZD7762] (partner 0.2 µM)",
    "classification": "bucket A"
  },
  {
    "compound": "Nc1ccn([C@@H]2O[C@H](CO)[C@@H](O)[C@@H]2O)c(=O)n1 [Cytarabine] + N=C(N)NC(=N)NCCc1ccccc1 [Phenformin] (partner 250 µM)",
    "classification": "bucket A"
  },
  {
    "compound": "COc1cc2nccc(Oc3ccc(NC(=O)Nc4cc(C)on4)c(Cl)c3)c2cc1OC [Tivozanib] + COc1cc2c(Oc3ccc(NC(=O)C4(C(=O)Nc5ccc(F)cc5)CC4)cc3F)ccnc2cc1OCCCN1CCOCC1 [Foretinib] (partner 0.25 µM)",
    "classification": "bucket C"
  },
  {
    "compound": "Nc1ccn([C@@H]2O[C@H](CO)[C@@H](O)[C@@H]2O)c(=O)n1 [Cytarabine] + CC(C)C[C@H](NC(=O)[C@H](Cc1ccccc1)NC(=O)c1cnccn1)B(O)O [Bortezomib] (partner 0.002 µM)",
    "classification": "bucket C"
  }
]

Asked: Please let me know in which category the item COc1cc2nccc(Oc3ccc(NC(=O)Nc4cc(C)on4)c(Cl)c3)c2cc1OC [Tivozanib] + Nc1ncn([C@H]2C[C@H](O)[C@@H](CO)O2)c(=O)n1 [Decitabine] (partner 2 µM) belongs.
Given back: bucket B

Asked: Please let me know in which category the item COc1cc2nccc(Oc3ccc(NC(=O)Nc4cc(C)on4)c(Cl)c3)c2cc1OC [Tivozanib] + C[C@@H](Oc1cc(-c2cnn(C3CCNCC3)c2)cnc1N)c1c(Cl)ccc(F)c1Cl [Crizotinib] (partner 1 µM) belongs.
Given back: bucket C

Asked: Please let me know in which category the item COc1cc2nccc(Oc3ccc(NC(=O)Nc4cc(C)on4)c(Cl)c3)c2cc1OC [Tivozanib] + CC1(C)CCC(c2ccc(Cl)cc2)=C(CN2CCN(c3ccc(C(=O)NS(=O)(=O)c4ccc(N[C@H](CCN5CCOCC5)CSc5ccccc5)c(S(=O)(=O)C(F)(F)F)c4)cc3)CC2)C1 [Navitoclax] (partner 0.5 µM) belongs.
Given back: bucket C

Asked: Please let me know in which category the item COc1cc2nccc(Oc3ccc(NC(=O)Nc4cc(C)on4)c(Cl)c3)c2cc1OC [Tivozanib] + Cc1cc(Nc2cc(N3CCN(C)CC3)nc(Sc3ccc(NC(=O)C4CC4)cc3)n2)n[nH]1 [Tozasertib] (partner 0.1 µM) belongs.
Given back: bucket B

Asked: Please let me know in which category the item COc1cc2nccc(Oc3ccc(NC(=O)Nc4cc(C)on4)c(Cl)c3)c2cc1OC [Tivozanib] + CC(C)C[C@H](NC(=O)[C@H](Cc1ccccc1)NC(=O)c1cnccn1)B(O)O [Bortezomib] (partner 0.002 µM) belongs.
Given back: bucket C

Asked: Please let me know in which category the item COc1cc2nccc(Oc3ccc(NC(=O)Nc4cc(C)on4)c(Cl)c3)c2cc1OC [Tivozanib] + Cc1nc(Nc2ncc(C(=O)Nc3c(C)cccc3Cl)s2)cc(N2CCN(CCO)CC2)n1 [Dasatinib] (partner 0.075 µM) belongs.
Given back: bucket A

Asked: Please let me know in which category the item COc1cc2nccc(Oc3ccc(NC(=O)Nc4cc(C)on4)c(Cl)c3)c2cc1OC [Tivozanib] + N=C(N)NC(=N)NCCc1ccccc1 [Phenformin] (partner 250 µM) belongs.
Given back: bucket A

Asked: Please let me know in which category the item Nc1ccn([C@@H]2O[C@H](CO)[C@@H](O)[C@@H]2O)c(=O)n1 [Cytarabine] + O=C(c1cc(Cc2n[nH]c(=O)c3ccccc23)ccc1F)N1CCN(C(=O)C2CC2)CC1 [Olaparib] (partner 8 µM) belongs.
Given back: bucket B

====

Listed here are molecules together with their documented relative viability.
- System: NCI-H1734
- assay-info: relative viability (nuclei count vs DMSO), 5 days (fraction); higher = more cells survive
- cond: first compound 0.253 µM
Please give the numeric answer without any surrounding text.

Some molecules with known relative viability results, for comparison:
[
  {
    "molecule": "O=c1[nH]c2ccccc2n1C1CCN(CCCC(c2ccc(F)cc2)c2ccc(F)cc2)CC1 [Pimozide] + COc1cccc2cc(-c3nc([C@H]4CC[C@H](C(=O)O)CC4)n4ncnc(N)c34)[nH]c12 [OSI-027] (partner 0.5 µM)",
    "measure-name": "relative viability",
    "endpoint-result": 0.625
  },
  {
    "molecule": "Cc1cnc(-c2cnc(NCCNc3ccc(C#N)cn3)nc2-c2ccc(Cl)cc2Cl)[nH]1 + O=C(CCCCCCC(=O)Nc1ccccc1)NO [Vorinostat] (partner 1 µM)",
    "measure-name": "relative viability",
    "endpoint-result": 0.693
  },
  {
    "molecule": "O=c1[nH]c2ccccc2n1C1CCN(CCCC(c2ccc(F)cc2)c2ccc(F)cc2)CC1 [Pimozide] + N=C(N)NC(=N)NCCc1ccccc1 [Phenformin] (partner 250 µM)",
    "measure-name": "relative viability",
    "endpoint-result": 0.366
  }
]

Summary for this molecule, Cc1cnc(-c2cnc(NCCNc3ccc(C#N)cn3)nc2-c2ccc(Cl)cc2Cl)[nH]1 + Cc1nc(NC(=O)N2CCC[C@H]2C(N)=O)sc1-c1ccnc(C(C)(C)C(F)(F)F)c1 [Alpelisib] (partner 2 µM) : relative viability is 0.673

Summary for this molecule, O=c1[nH]c2ccccc2n1C1CCN(CCCC(c2ccc(F)cc2)c2ccc(F)cc2)CC1 [Pimozide] + O=C(CCCCCCC(=O)Nc1ccccc1)NO [Vorinostat] (partner 1 µM) : relative viability is 0.739

Summary for this molecule, Cc1cnc(-c2cnc(NCCNc3ccc(C#N)cn3)nc2-c2ccc(Cl)cc2Cl)[nH]1 + N=C(N)NC(=N)NCCc1ccccc1 [Phenformin] (partner 250 µM) : relative viability is 0.379

Summary for this molecule, Cc1cnc(-c2cnc(NCCNc3ccc(C#N)cn3)nc2-c2ccc(Cl)cc2Cl)[nH]1 + Nc1ncn([C@H]2C[C@H](O)[C@@H](CO)O2)c(=O)n1 [Decitabine] (partner 2 µM) : relative viability is 0.453

Summary for this molecule, O=c1[nH]c2ccccc2n1C1CCN(CCCC(c2ccc(F)cc2)c2ccc(F)cc2)CC1 [Pimozide] + Nc1nc2[nH]cc(CCc3ccc(C(=O)N[C@@H](CCC(=O)O)C(=O)O)cc3)c2c(=O)[nH]1 [Pemetrexed] (partner 0.2 µM) : relative viability is 0.436

Summary for this molecule, O=c1[nH]c2ccccc2n1C1CCN(CCCC(c2ccc(F)cc2)c2ccc(F)cc2)CC1 [Pimozide] + CC(=O)Nc1cccc(-n2c(=O)n(C3CC3)c(=O)c3c(Nc4ccc(I)cc4F)n(C)c(=O)c(C)c32)c1 [Trametinib] (partner 0.02 µM) : relative viability is 0.697
